- method-summary: Plasma and lung drug levels in mice after MicroSprayer endotracheal delivery (LC/MS/MS)
- condition-details: female, C57BL/6, mouse, lung, Lung Concentration (μg/g) of Tissue, mice, IT, 8 hr, individual animals
attribute-measured: concentration at 8 h (ng/g)
// return numeric value only (unit: ng/g, not printed)

Task item: Report concentration at 8 h for C[C@H]1COc2c(N3CCN(C)CC3)c(F)cc3c(=O)c(C(=O)O)cn1c23 please.
Reply: 7560

----------
- method-summary: Plasma and lung drug levels in mice after MicroSprayer endotracheal delivery (LC/MS/MS)
- condition-details: female, C57BL/6, mouse, plasma, Plasma levels 8 hour post dose (range), mice, endotracheal MicroSprayer, Subgroup B, 3 animals
attribute-measured: concentration at 8 h

Example entries and their recorded answers appear below.
1) Cc1ncc([N+](=O)[O-])n1CCO	42.3 ng/mL
2) NCC[C@H](O)C(=O)N[C@@H]1C[C@H](N)[C@@H](O[C@H]2O[C@H](CN)[C@@H](O)[C@H](O)[C@H]2O)[C@H](O)[C@H]1O[C@H]1O[C@H](CO)[C@@H](O)[C@H](N)[C@H]1O	152 to 406 ng/mL

API: the following record is the query input.
Task item: Report concentration at 8 h for C[C@H]1COc2c(N3CCN(C)CC3)c(F)cc3c(=O)c(C(=O)O)cn1c23 please.
Reply: 53 ng/mL

----------
- method-summary: Plasma and lung drug levels in mice after MicroSprayer endotracheal delivery (LC/MS/MS)
- condition-details: female, C57BL/6, mouse, plasma, Plasma Concentration, mice, IT, 1 hr, individual animals; nominal dose 0.48/0.3/0.1 mg/animal (delivered about 50%)
attribute-measured: concentration at 1 h (ng/mL)
// return numeric value only (unit: ng/mL, not printed)

1) C[C@H]1COc2c(N3CCN(C)CC3)c(F)cc3c(=O)c(C(=O)O)cn1c23	556

API: the following record is the query input.
Task item: Report concentration at 1 h for Cc1ncc([N+](=O)[O-])n1CCO please.
Reply: 2290

----------
- method-summary: Plasma and lung drug levels in mice after MicroSprayer endotracheal delivery (LC/MS/MS)
- condition-details: female, C57BL/6, mouse, plasma, Plasma levels 1 hour post dose (range), mice, endotracheal MicroSprayer, Subgroup A, 3 animals
attribute-measured: concentration at 1 h

Example entries and their recorded answers appear below.
1) Cc1ncc([N+](=O)[O-])n1CCO [Metronidazole]	1670 to 2290 ng/mL
2) C[C@H]1COc2c(N3CCN(C)CC3)c(F)cc3c(=O)c(C(=O)O)cn1c23 [Levofloxacin]	534 to 815 ng/mL

API: the following record is the query input.
Task item: Report concentration at 1 h for NCC[C@H](O)C(=O)N[C@@H]1C[C@H](N)[C@@H](O[C@H]2O[C@H](CN)[C@@H](O)[C@H](O)[C@H]2O)[C@H](O)[C@H]1O[C@H]1O[C@H](CO)[C@@H](O)[C@H](N)[C@H]1O [Amikacin] please.
Reply: 2300 to 7140 ng/mL

----------
- method-summary: Plasma and lung drug levels in mice after MicroSprayer endotracheal delivery (LC/MS/MS)
- condition-details: female, C57BL/6, mouse, lung, Lung levels 8 hour post dose (range), mice, endotracheal MicroSprayer, Subgroup B
attribute-measured: concentration at 8 h (ng/g)
// return numeric value only (unit: ng/g, not printed)

Task item: Report concentration at 8 h for C[C@H]1COc2c(N3CCN(C)CC3)c(F)cc3c(=O)c(C(=O)O)cn1c23 [Levofloxacin] please.
Reply: 1200

----------
concentration at 1 h by entry:
- method-summary: Plasma and lung drug levels in mice after MicroSprayer endotracheal delivery (LC/MS/MS)
- condition-details: female, C57BL/6, mouse, lung, Lung Concentration, mice, IT, 1 hr, individual animals
// return numeric value only (unit: ng/g, not printed)

1. C[C@H]1COc2c(N3CCN(C)CC3)c(F)cc3c(=O)c(C(=O)O)cn1c23 [Levofloxacin]	2140

API: the following record is the query input.
Task item: Report concentration at 1 h for Cc1ncc([N+](=O)[O-])n1CCO [Metronidazole] please.
Reply: 1640

----------
- method-summary: Plasma and lung drug levels in mice after MicroSprayer endotracheal delivery (LC/MS/MS)
- condition-details: female, C57BL/6, mouse, lung, Lung Concentration (μg/g) of Tissue, mice, IT, 1 hr, individual animals
attribute-measured: concentration at 1 h (ng/g)
// return numeric value only (unit: ng/g, not printed)

1) Cc1ncc([N+](=O)[O-])n1CCO [Metronidazole]	11700

Task item: Report concentration at 1 h for C[C@H]1COc2c(N3CCN(C)CC3)c(F)cc3c(=O)c(C(=O)O)cn1c23 [Levofloxacin] please.
Reply: 13800

----------
- method-summary: Plasma and lung drug levels in mice after MicroSprayer endotracheal delivery (LC/MS/MS)
- condition-details: female, C57BL/6, mouse, lung, Lung Concentration, mice, IT, 8 hr, individual animals
attribute-measured: concentration at 8 h (ng/g)
// return numeric value only (unit: ng/g, not printed)

Task item: Report concentration at 8 h for C[C@H]1COc2c(N3CCN(C)CC3)c(F)cc3c(=O)c(C(=O)O)cn1c23 [Levofloxacin] please.
Reply: 1200

Attribution: patent US20160250142A1
